These entries and their values trace back to the supplement of paper PMC7877785.

experiment: self-splicing fitness, log relative to wild type (ln ratio); higher = more splicing; Tetrahymena group I intron in knt gene, E. coli kanamycin selection, DiMSum; sequences stand for … in CUCUCU…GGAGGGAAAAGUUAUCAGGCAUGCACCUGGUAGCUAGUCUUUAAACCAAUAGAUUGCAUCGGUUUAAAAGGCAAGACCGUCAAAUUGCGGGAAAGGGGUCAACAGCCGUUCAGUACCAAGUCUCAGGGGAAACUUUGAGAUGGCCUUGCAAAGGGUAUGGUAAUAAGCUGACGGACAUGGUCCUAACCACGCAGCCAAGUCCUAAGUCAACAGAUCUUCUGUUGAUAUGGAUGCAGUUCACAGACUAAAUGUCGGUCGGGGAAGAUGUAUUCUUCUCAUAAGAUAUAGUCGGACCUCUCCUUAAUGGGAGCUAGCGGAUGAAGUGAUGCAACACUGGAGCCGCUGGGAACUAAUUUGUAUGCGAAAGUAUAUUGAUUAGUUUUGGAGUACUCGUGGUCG; details: 30 °C;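 further: selection with 25 µg/mL kanamycin versus none on LB agar overnight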
endpoint-label: self-splicing fitness (ln)
Simply state the number, no unit and no words.

Recorded self-splicing fitness (ln), per entry:
# sequence-string, self-splicing fitness (ln)
measured = [
    ("AAAUAGCAAUAUUACGAUGG", -2.87),
    ("GGGCAGCAAUAUUACGAAAC", -0.715),
    ("ACCAAGCAAUAUUACGUUGC", -2.65),
]

self-splicing fitness (ln) recorded for this sequence, AUCGAGCAAUAUUACGUGGA , is -3.68

self-splicing fitness (ln) recorded for this sequence, UAGUAGCAAUAUUACGGUUU , is -3.57

self-splicing fitness (ln) recorded for this sequence, UUUAAGCAAUAUUACGGGGU , is -3.7

self-splicing fitness (ln) recorded for this sequence, CUAAAGCAAUAUUACGUCAU , is -4.85

self-splicing fitness (ln) recorded for this sequence, AAAGAGCAAUAUUACGCGUU , is -2.13

self-splicing fitness (ln) recorded for this sequence, ACGUAGCAAUAUUACGCUAG , is -2.85

self-splicing fitness (ln) recorded for this sequence, GGACAGCAAUAUUACGUUGA , is -0.48

self-splicing fitness (ln) recorded for this sequence, UCACAGCAAUAUUACGCGGU , is -4.02

self-splicing fitness (ln) recorded for this sequence, UACUAGCAAUAUUACGUAUC , is -2.06

self-splicing fitness (ln) recorded for this sequence, ACCAAGCAAUAUUACGCUCU , is -0.714

self-splicing fitness (ln) recorded for this sequence, UUUCAGCAAUAUUACGGGUU , is -3.19

self-splicing fitness (ln) recorded for this sequence, UGUGAGCAAUAUUACGUGGG , is -3.67

self-splicing fitness (ln) recorded for this sequence, ACGCAGCAAUAUUACGUUCA , is -1.96

self-splicing fitness (ln) recorded for this sequence, ACCAAGCAAUAUUACGACUA , is -0.894

self-splicing fitness (ln) recorded for this sequence, CGCUAGCAAUAUUACGGGAU , is -3.77

self-splicing fitness (ln) recorded for this sequence, CGCGAGCAAUAUUACGGUAC , is -3.55

self-splicing fitness (ln) recorded for this sequence, ACUAAGCAAUAUUACGAAGC , is -3.67

self-splicing fitness (ln) recorded for this sequence, GGCGAGCAAUAUUACGGACA , is -0.299

self-splicing fitness (ln) recorded for this sequence, CCUAAGCAAUAUUACGUUUG , is -4.59

self-splicing fitness (ln) recorded for this sequence, AUCAAGCAAUAUUACGGCCC , is -0.747
